# Experimental details: Cytotoxicity assay
# Type: cell-based
# Details: human, HEK293 cells
# Procedure: The antifungal activities were evaluated by determining the minimum inhibitory concentration (MIC) against C. albicans [ATCC 90028] and C. neoformans [ATCC 208821] that inhibits 99% fungal growth. Cytotoxicity and hemolytic activities were assessed against human embryonic kidney (HEK293) cells and human red blood cells, respectively. The antimicrobial screening was performed by The Community for Antimicrobial Drug Discovery (CO-ADD).[31] […]

{"Molecule": "N=C(N)NCCC[C@H](NC(=O)[C@H](Cc1c[nH]c2ccccc12)NC(=O)[C@H](CCCNC(=N)N)NC(=O)[C@H](Cc1c[nH]c2ccccc12)NC(=O)[C@H](CCCNC(=N)N)NC(=O)[C@H](Cc1c[nH]c2ccccc12)NC(=O)[C@H](CCCNC(=N)N)NC(=O)[C@H](Cc1c[nH]c2ccccc12)NC(=O)[C@H](CCCNC(=N)N)NC(=O)[C@H](Cc1c[nH]c2ccccc12)NC(=O)[C@@H](N)CCCNC(=N)N)C(=O)N[C@@H](Cc1c[nH]c2ccccc12)C(N)=O [RW6, (RW)6-NH2]", "CC50": "> 32 µg/mL"}

Source of measurements: paper PMC11579929
